Assignment: determine reported IC50 for the given compounds.
- SYSTEM UNDER TEST: Full length wild-type cereblon CRBN (Homo sapiens)
- Construct: Full length wild-type cereblon CRBN (80.0 nM, 10 μL) was incubated in assay buffer
- Sequence (Q96SW2 whole entry): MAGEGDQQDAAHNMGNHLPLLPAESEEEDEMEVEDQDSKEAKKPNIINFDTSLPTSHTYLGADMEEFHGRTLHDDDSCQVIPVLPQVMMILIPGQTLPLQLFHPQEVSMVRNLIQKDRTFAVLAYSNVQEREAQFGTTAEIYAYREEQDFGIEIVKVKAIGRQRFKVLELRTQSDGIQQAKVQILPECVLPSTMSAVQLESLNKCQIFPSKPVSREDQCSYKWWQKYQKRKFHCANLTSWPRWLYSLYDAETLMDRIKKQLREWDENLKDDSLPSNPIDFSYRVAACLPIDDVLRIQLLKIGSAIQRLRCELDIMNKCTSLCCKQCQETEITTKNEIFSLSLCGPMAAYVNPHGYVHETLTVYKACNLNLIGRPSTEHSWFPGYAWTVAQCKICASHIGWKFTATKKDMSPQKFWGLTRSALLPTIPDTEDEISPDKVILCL
- EXPERIMENTAL PROTOCOL: Fluorescence polarization (FP) assay, cereblon binding
- CONDITION SET: bounds stated in the text lists b2059-b2061; read-out: IC50 value

>  <COMPOUND>
O=C1CCC(N2Cc3ccc(COC(=O)Nc4ccc(C5CCC5)nc4)cc3C2=O)C(=O)N1 (centres unmarked) [Compound 105]

>  <MEASUREMENT NAME>
IC50

>  <TEST VALUE>
< 1.7 µM

$$$$
>  <COMPOUND>
O=C1CCC(N2Cc3ccc(COC(=O)NCc4ccccc4)cc3C2=O)C(=O)N1 (centres unmarked) [Compound 98]

>  <MEASUREMENT NAME>
IC50

>  <TEST VALUE>
< 1.7 µM

$$$$
>  <COMPOUND>
O=C1CCC(N2Cc3ccc(COC(=O)Nc4ccc(-c5ccccc5F)nc4)cc3C2=O)C(=O)N1 (centres unmarked) [Compound 84]

>  <MEASUREMENT NAME>
IC50

>  <TEST VALUE>
< 1.1 µM

$$$$
>  <COMPOUND>
CC1CCCCN1c1ccc(NC(=O)OCc2ccc3c(c2)C(=O)N(C2CCC(=O)NC2=O)C3)cn1 (centres unmarked) [Compound 77]

>  <MEASUREMENT NAME>
IC50

>  <TEST VALUE>
< 1.7 µM

$$$$
>  <COMPOUND>
CCc1ncc(NC(=O)OCc2ccc3c(c2)C(=O)N(C2CCC(=O)NC2=O)C3)cc1C (centres unmarked) [Compound 49]

>  <MEASUREMENT NAME>
IC50

>  <TEST VALUE>
< 1.7 µM

$$$$

Count: 3. Required value per item: IC50.
1. O=C1CCC(N2Cc3ccc(COC(=O)Nc4ccc(N5CCCCC5)nc4)cc3C2=O)C(=O)N1 (centres unmarked) [Compound 15]
2. C[C@H]1CCCN1c1ccc(NC(=O)OCc2ccc3c(c2)C(=O)N(C2CCC(=O)NC2=O)C3)cn1 (some centres unmarked) [Compound 156]
3. Cc1cc(F)cc(NC(=O)OCc2ccc3c(c2)C(=O)N(C2CCC(=O)NC2=O)C3)c1 (centres unmarked) [Compound 146]

Reply text:
< 1.7 µM
< 1.1 µM
< 1.7 µM

Data provenance: patent US20230348418A1
